assay: NCI Yeast Anticancer Drug Screen. Data for the mec2-1 strain (AID 157); settings: S. cerevisiae mec2-1 strain, at 5.0 µM (retest, dose inferred, filed as 0.5), active compounds read high
This is part of a sample that, as a whole, favours compounds with a hit. Of some 79,000 tested, about 15% had one in any assay.
Listing of entries alongside the reported growth inhibition.
property.measured: growth inhibition (%)

- compound: "O=[N+]([O-])c1ccc([N+](=O)[O-])c2nsnc12"
  property.measured: "growth inhibition"
  assay.value: 90
- compound: "c1ccc(C[As](c2ccccc2)c2ccccc2)cc1"
  property.measured: "growth inhibition"
  assay.value: 99
- compound: "O=[C-]c1ccccc1[C-]=O.[Pd+2].c1ccc([PH+](c2ccccc2)c2ccccc2)cc1.c1ccc([PH+](c2ccccc2)c2ccccc2)cc1"
  property.measured: "growth inhibition"
  assay.value: 7
- compound: "CC(=O)OCC12CCC(C)=CC1OC1C(O)C(OC(C)=O)C2(C)C12CO2 (centres undefined)"
  property.measured: "growth inhibition"
  assay.value: 98
- compound: "c1cc[c]([Pb]([S]c2nc3ccccc3[nH]2)([c]2ccccc2)[c]2ccccc2)cc1"
  property.measured: "growth inhibition"
  assay.value: 100
- compound: "O=[N+]([O-])O.c1ccc([As+](c2ccccc2)(c2ccccc2)c2ccccc2)cc1"
  property.measured: "growth inhibition"
  assay.value: 43
- compound: "O=C1CC2CCCC(C1)N2Cc1ccccc1"
  property.measured: "growth inhibition"
  assay.value: 4
- compound: "N#CC(C#N)=NNc1cccc(Cl)c1Cl"
  property.measured: "growth inhibition"
  assay.value: 48
- compound: "[CH3][Sn]([CH3])([Br])[Br].c1ccc(-c2nnc(-c3ccccn3)nc2-c2ccccc2)cc1"
  property.measured: "growth inhibition"
  assay.value: -16
- compound: "CSCCC([NH-])C(=O)O.CSCCC([NH-])C(=O)O.[Zn+2] (centres undefined)"
  property.measured: "growth inhibition"
  assay.value: 1
- compound: "Cc1ccc(NCc2ccccc2)cc1[As](=O)(O)O"
  property.measured: "growth inhibition"
  assay.value: -2
- compound: "C[CH2][Sn]([O][Sn]([Cl])([CH2]C)[c]1ccccc1)[c]1ccccc1 (centres undefined)"
  property.measured: "growth inhibition"
  assay.value: 18
- compound: "C[C@@H]1C[C@@H]([C@H](O)CC2CC(=O)NC(=O)C2)C(=O)[C@@H](C)C1"
  property.measured: "growth inhibition"
  assay.value: 98
- compound: "C1=C(/C=C2\\CCCc3c(-c4ccccc4)cc(-c4ccccc4)[o+]c32)CCC/C1=C\\C1=C2OC(c3ccccc3)=CC(c3ccccc3)=C2CCC1"
  property.measured: "growth inhibition"
  assay.value: 3
- compound: "O=C1C=Cc2ccccc2C1=O"
  property.measured: "growth inhibition"
  assay.value: 32
- compound: "COC1CCCC2OC3(OC)C(OC)CCCC3OC12OC (centres undefined)"
  property.measured: "growth inhibition"
  assay.value: -1
- compound: "CC(=O)[O][Hg][c]1ccc(N)[c]([Hg][O]C(C)=O)c1"
  property.measured: "growth inhibition"
  assay.value: 99
- compound: "CCCC1CC[N-]CC1.CCCC1CC[N-]CC1.N#C[S-].N#C[S-].[Cd]"
  property.measured: "growth inhibition"
  assay.value: 10
- compound: "[C-]#[O+].[C-]#[O+].[C-]#[O+].[C-]#[O+].[C-]#[O+].[Mo+2].[Mo+4].[c-]1[c-][c-][cH-][c-]1.[c-]1[c-][c-][cH-][c-]1.c1ccc([PH+](CC[PH+](c2ccccc2)c2ccccc2)c2ccccc2)cc1"
  property.measured: "growth inhibition"
  assay.value: 73
